Every entry's value here was drawn from ChEMBL document CHEMBL3593223.

# measurement_notes: Cytotoxicity against mouse RAW264.7 cells assessed as survival rate at 200 uM after 48 hrs by MTT assay in absence of LPS relative to control
# Format: cell-based
# setup_conditions: read-out: Survival
Readings of viability at 48 h, 200 µM for the listed compounds
readout_type: viability at 48 h, 200 µM (%)

>  <entry_smiles>
COC1=CC2(C=C(OC)C1=O)[C@H](CO)[C@@H](c1cc(OC)c(O)c(OC)c1)O[C@@H]2[C@@H](O)CO

>  <assay_result>
101

$$$$
>  <entry_smiles>
COC1=CC2(C=C(OC)C1=O)[C@H](CO)[C@@H](c1ccc(O)c(OC)c1)O[C@@H]2[C@@H](O)CO

>  <assay_result>
98

$$$$
>  <entry_smiles>
COC1=CC2(C=C(OC)C1=O)[C@@H](CO)[C@H](c1cc(OC)c(O)c(OC)c1)O[C@H]2[C@H](O)CO

>  <assay_result>
102

$$$$
>  <entry_smiles>
COC1=CC2(C=C(OC)C1=O)[C@@H](CO)[C@H](c1ccc(O)c(OC)c1)O[C@H]2[C@H](O)CO

>  <assay_result>
99

$$$$
>  <entry_smiles>
C[C@@H]1C[C@H]2[C@@H]3CCC4=CC(=O)C=C[C@]4(C)[C@@]3(F)[C@@H](O)C[C@]2(C)[C@@]1(O)C(=O)CO

>  <assay_result>
91

$$$$
